// IC50 lookup, one value per entry
# SUBJECT OF TEST: hGALK1m (Homo sapiens, UniProt P51570, E253A/K252A)
# Construct: made in house; host or cells: E. coli HMS174
# Sequence (P51570 whole entry K252A/E253A): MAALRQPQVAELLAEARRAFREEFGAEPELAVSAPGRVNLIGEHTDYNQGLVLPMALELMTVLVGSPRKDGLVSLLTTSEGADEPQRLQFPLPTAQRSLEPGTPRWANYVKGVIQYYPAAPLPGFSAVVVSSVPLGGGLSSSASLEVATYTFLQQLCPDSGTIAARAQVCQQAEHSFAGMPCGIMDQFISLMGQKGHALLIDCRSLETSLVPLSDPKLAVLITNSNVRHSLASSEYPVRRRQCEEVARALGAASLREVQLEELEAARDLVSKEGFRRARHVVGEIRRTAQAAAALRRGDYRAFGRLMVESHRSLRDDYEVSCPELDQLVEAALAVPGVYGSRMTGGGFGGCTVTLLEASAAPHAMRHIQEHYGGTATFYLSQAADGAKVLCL
# PROCEDURE SUMMARY: in vitro hGALK1 activity assay of the structure-based optimisation (Example 12, Tables 17-20)
# Assay type: biochemical
# MEASUREMENT PARAMETERS: Tables 18-20 and text of Example 12
Form field: result (number plus unit)

Check out these entries, answers already filled in.
# input molecule: CC1=C(C(=O)Nc2cc(C(=O)O)ccn2)C(c2ccc(C)cc2Cl)N=C(Nc2nc3ccc(F)cc3o2)N1 (racemic) [Compound 50] ; wanted: its IC50
136 nM

# input molecule: CC1=C(C(=O)Nc2cc(C(=O)O)ccn2)C(c2ccc(Cl)cc2Cl)N=C(Nc2nc3ccc(F)cc3o2)N1 (stereo not shown) [Compound 47] ; wanted: its IC50
345 nM

# input molecule: CC1=C(C(=O)Nc2cc(C(=O)O)ccn2)C(c2ccccc2Cl)N=C(Nc2nc3cccc(C)c3o2)N1 (stereo not shown) [Compound 15] ; wanted: its IC50
365 nM

***
# input molecule: CC1=C(C(=O)NCc2cnn(C)c2)C(c2ccc(C)cc2Cl)N=C(Nc2nc3cccc(N)c3o2)N1 (racemic) [Compound 83] ; wanted: its IC50
47 nM

# input molecule: COc1ccc(C2N=C(Nc3nc4ccc(F)cc4o3)NC(C)=C2C(=O)Nc2cc(C(=O)O)ccn2)c(Cl)c1 (racemic) [Compound 46] ; wanted: its IC50
300 nM

# input molecule: CC1=C(C(=O)Nc2cc(C(=O)O)ccn2)C(c2ccccc2Cl)N=C(Nc2nc3ccc(F)cc3o2)N1 (racemic) [Compound 1] ; wanted: its IC50
260 nM

# input molecule: CC1=C(C(=O)Nc2cc(C(=O)O)ccn2)C(c2ccccc2Cl)N=C(Nc2nc3ccccc3o2)N1 (racemic) [Compound 194] ; wanted: its IC50
970 nM

---

# SUBJECT OF TEST: recombinant mouse GALK1 (Mus musculus)
# Sequence (Q9R0N0 whole entry): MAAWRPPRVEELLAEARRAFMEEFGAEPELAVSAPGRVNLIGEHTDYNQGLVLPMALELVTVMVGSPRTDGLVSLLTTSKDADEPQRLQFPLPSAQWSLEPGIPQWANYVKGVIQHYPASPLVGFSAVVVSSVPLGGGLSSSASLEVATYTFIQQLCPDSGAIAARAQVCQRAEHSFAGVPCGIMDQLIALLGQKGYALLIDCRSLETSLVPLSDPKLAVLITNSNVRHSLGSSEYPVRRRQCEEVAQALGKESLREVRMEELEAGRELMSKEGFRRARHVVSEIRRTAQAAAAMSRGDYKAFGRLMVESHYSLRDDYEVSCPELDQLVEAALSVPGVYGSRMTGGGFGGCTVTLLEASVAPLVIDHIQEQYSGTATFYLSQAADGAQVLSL
# PROCEDURE SUMMARY: mGALK1 biochemical activity assay (Kinase-Glo Plus, ATP depletion)
# MEASUREMENT PARAMETERS: Tables 2-15; 35 μM ATP, 100 μM galactose, 1 h; bracketed figure after some values is undefined and not reported
OBSERVABLE: mGALK IC50

Check out these entries, answers already filled in.
# input compound: CC1=C(C(=O)Nc2cc(C(=O)O)ccn2)C(c2ccccc2Cl)N=C(Nc2nc3cccc(OC(F)(F)F)c3o2)N1 (stereo not shown) ; wanted: its mGALK IC50
inactive

# input compound: CC1=C(C(=O)NCc2ccccc2Cl)C(c2ccccc2Cl)N=C(Nc2nc3ccccc3o2)N1 (stereo not shown) ; wanted: its mGALK IC50
inactive

# input compound: CC1=C(C(=O)NCc2cnn(C)c2)C(c2ccc(C)cc2Cl)N=C(Nc2nc3ncccc3o2)N1 (stereo not shown) ; wanted: its mGALK IC50
inactive

# input compound: CC1=C(C(=O)NCc2ccc(F)cc2)C(c2ccccc2Cl)N=C(Nc2nc3ccccc3o2)N1 (stereo not shown) ; wanted: its mGALK IC50
inactive

# input compound: CC1=C(C(=O)Nc2cc(C(=O)O)ccn2)C(c2ccc(C)cc2Cl)N=C(Nc2nc3cccnc3o2)N1 (stereo not shown) ; wanted: its mGALK IC50
inactive

***
# input compound: COC(=O)c1ccccc1NC(=O)C1=C(C)NC(Nc2nc3ccccc3o2)=NC1c1ccccc1Cl (stereo not shown) ; wanted: its mGALK IC50
inactive

# input compound: CC1=C(C(=O)Nc2ccccc2Cl)C(c2ccccc2Cl)N=C(Nc2nc3ccccc3o2)N1 (stereo not shown) ; wanted: its mGALK IC50
inactive

# input compound: CC1=C(C(=O)NCc2ccc(Cl)cc2)C(c2ccccc2Cl)N=C(Nc2nc3ccccc3o2)N1 (stereo not shown) ; wanted: its mGALK IC50
inactive

# input compound: CC1=C(C(=O)Nc2cccc(Cl)c2)C(c2ccccc2Cl)N=C(Nc2nc3ccccc3o2)N1 (stereo not shown) ; wanted: its mGALK IC50
inactive

# input compound: "CC1=C(C(=O)NCc2cn(C)cn2)[C@@H](c2ccccc2Cl)N=C(Nc2nc3ccccc3o2)N1" ; wanted: its mGALK IC50
inactive
